- Test system: ONS-76 cells
- experimental.protocol: MTS cell viability assay in ONS-76 cells
- Assay type: cell-based
- condition.parameters: Homo sapiens; ONS-76 cells, 72 hr, MTS assay, @ 1160 nM; read-out: percent cell inhibition, ONS-76
Below: a set of entries, each annotated with reported inhibition at 1.16 µM.
Provide the reading as a plain figure in %.

structure.smiles: C=CCn1c(=O)c2cnc(Nc3ccc(N4CCN(C)CC4)cc3)nc2n1-c1cccc(C(C)(C)O)c1
reported.metric: inhibition at 1.16 µM
data.value: 61
//
structure.smiles: C=CCn1c(=O)c2cnc(Nc3cccc(CN(C)C)c3)nc2n1-c1cccc(C(C)(C)O)n1
reported.metric: inhibition at 1.16 µM
data.value: 40
//
structure.smiles: C=CCn1c(=O)c2cnc(Nc3ccc(N4CCN(C)CC4)cc3)nc2n1-c1cccc(CO)n1
reported.metric: inhibition at 1.16 µM
data.value: 59

Exercise: Write down the reported inhibition at 1.16 µM of `C=CCn1c(=O)c2cnc(Nc3cccc(N(C)C)c3)nc2n1-c1cccc(C(C)(C)O)n1` , test system: ONS-76 cells.
Key: 33

Exercise: Write down the reported inhibition at 1.16 µM of `C=CCn1c(=O)c2cnc(Nc3ccccc3)nc2n1-c1cccc(C(C)(C)O)n1` , test system: ONS-76 cells.
Key: 32

====

- Tested on: Daoy cells
- experimental.protocol: MTS cell viability assay in Daoy cells
- Assay type: cell-based, human
- condition.parameters: read-out: EC50 cellular metabolic viability, Daoy; Daoy cells, 72 hours, MTS assay, n=3, ±=S.D.
reported.metric: EC50 (nM)
Provide the reading as a plain figure in nM.

Exercise: # lookup: EC50 of C=CCn1c(=O)c2cnc(Nc3ccc(N4CCN(C)CC4)cc3)nc2n1-c1cccc(C(C)(C)O)n1 [AZD1775, reference compound]
Key: 179

====

- target.of.assay: recombinant WEE1 kinase (Homo sapiens (Human))
- Sequence (P30291 whole entry): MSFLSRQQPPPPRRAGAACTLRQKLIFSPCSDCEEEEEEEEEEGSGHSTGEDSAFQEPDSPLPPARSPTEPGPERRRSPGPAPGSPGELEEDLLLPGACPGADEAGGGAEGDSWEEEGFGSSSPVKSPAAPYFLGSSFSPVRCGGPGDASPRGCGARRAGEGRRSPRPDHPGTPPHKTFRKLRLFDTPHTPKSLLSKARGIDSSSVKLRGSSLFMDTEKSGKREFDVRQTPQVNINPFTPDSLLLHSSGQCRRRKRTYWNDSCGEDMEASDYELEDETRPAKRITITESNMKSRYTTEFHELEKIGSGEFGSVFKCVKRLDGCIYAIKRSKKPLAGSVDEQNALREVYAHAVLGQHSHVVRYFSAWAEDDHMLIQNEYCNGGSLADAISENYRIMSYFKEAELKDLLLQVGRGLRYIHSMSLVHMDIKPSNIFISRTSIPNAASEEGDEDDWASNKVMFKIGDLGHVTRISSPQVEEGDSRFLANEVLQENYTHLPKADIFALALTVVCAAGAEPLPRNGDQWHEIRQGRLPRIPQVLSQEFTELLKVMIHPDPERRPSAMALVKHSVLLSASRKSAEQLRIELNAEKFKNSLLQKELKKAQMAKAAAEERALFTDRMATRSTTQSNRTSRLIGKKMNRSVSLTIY
- experimental.protocol: LanthaScreen Eu TR-FRET kinase binding assay for WEE1 kinase inhibitory activity
- condition.parameters: Kinase Tracer 178, 1 hour at room temperature
Below: a set of entries, each annotated with reported pIC50.
Note: pIC50 values are expressed as the negative base-10 logarithm of concentration in M.

Look over these answered cases.
molecule: C=CCn1c(=O)c2cnc(NCc3ccc(CC)cc3)nc2n1-c1cccc(C(C)(C)O)n1
pIC50: 7.87
//
molecule: C=CCn1c(=O)c2cnc(Nc3cccc(CN(C)C)c3)nc2n1-c1cccc(C(C)(C)O)n1 [drawing 18]
pIC50: 8.04
//
molecule: C=CCn1c(=O)c2cnc(N)nc2n1-c1cccc(C(C)(C)O)n1
pIC50: 7.75
//
molecule: C=CCn1c(=O)c2cnc(Nc3ccc(OCCN(C)C)cc3)nc2n1-c1cccc(C(C)(C)O)n1 [drawing 21]
pIC50: 8.11
//
molecule: C=CCn1c(=O)c2cnc(Nc3ccccc3)nc2n1-c1cccc(C(C)(C)O)n1 [drawing 14]
pIC50: 8.02
//
molecule: C=CCn1c(=O)c2cnc(Nc3cccc(C(=O)N(C)C)c3)nc2n1-c1cccc(C(C)(C)O)n1
pIC50: 7.56
//
molecule: C=CCn1c(=O)c2cnc(Nc3ccc(N4CCN(C)CC4)cc3)nc2n1-c1cccc(CO)c1
pIC50: 7.98
//
molecule: C=CCn1c(=O)c2cnc(Nc3cccc(C#N)c3)nc2n1-c1cccc(C(C)(C)O)n1
pIC50: 7.11

Exercise: # lookup: pIC50 of `C=C(C)c1cccc(-n2c3nc(Nc4ccc(N5CCN(C)CC5)cc4)ncc3c(=O)n2C)n1`
Key: 6.75

Exercise: # lookup: pIC50 of C=CCn1c(=O)c2cnc(Nc3ccc(CCN(C)C)cc3)nc2n1-c1cccc(C(C)(C)O)n1 [drawing 20]
Key: 8.74

Exercise: # lookup: pIC50 of `COc1ccc(Cn2c(=O)c3cnc(Nc4ccc(N5CCN(C)CC5)cc4)nc3n2-c2cccc(C(C)(C)O)n2)cc1`
Key: 7.05
